Assay protocol: SAD study plasma PK, single oral dose, healthy young subjects
Type: in vivo, human
Condition details: human, plasma, po, 3 mg, Tmax, Median, single oral dose 3 mg, n=6
Recorded metric: Tmax (h)
Dear colleague, please return just the value in h, with no unit written.

Read the entry Cn1c(-c2ccc(C(N)=O)cc2F)nnc1C(C)(C)Oc1c(F)cc(Cl)cc1F and write its reported Tmax. 2.5

* * *

Assay protocol: SAD study plasma PK, single oral dose, healthy young subjects
Assay type: in vivo, human
Condition details: human, plasma, po, 10 mg, t½, Median, single oral dose 10 mg, n=3
Recorded metric: half-life (h)
The figure you give is taken to be in h; do not add the unit.

Respond only with half-life recorded for Cn1c(-c2ccc(C(N)=O)cc2F)nnc1C(C)(C)Oc1c(F)cc(Cl)cc1F [ASP3662] 21.9

* * *

Assay protocol: SAD study plasma PK, single oral dose, healthy young subjects
Assay type: in vivo, human
Condition details: human, plasma, po, 60 mg, Tmax, Median, single oral dose 60 mg, n=6
Recorded metric: Tmax (h)
Entry rule: numbers only, all in h.

Output measured Tmax for this item: Cn1c(-c2ccc(C(N)=O)cc2F)nnc1C(C)(C)Oc1c(F)cc(Cl)cc1F [ASP3662] 3.5

* * *

Assay protocol: SAD study plasma PK, single oral dose, healthy young subjects
Format: in vivo, human
Condition details: human, plasma, po, 10 mg, Tmax, Median, single oral dose 10 mg, n=6
Recorded metric: Tmax (h)
Give the quantity in h, number only.

Return the recorded Tmax value; entry: Cn1c(-c2ccc(C(N)=O)cc2F)nnc1C(C)(C)Oc1c(F)cc(Cl)cc1F [ASP3662] 1.75

* * *

Assay protocol: SAD study plasma PK, single oral dose, healthy young subjects
Assay type: in vivo, human
Condition details: human, plasma, po, 10 mg, t½, Min–max, single oral dose 10 mg, n=3
Recorded metric: half-life

Please indicate half-life recorded for Cn1c(-c2ccc(C(N)=O)cc2F)nnc1C(C)(C)Oc1c(F)cc(Cl)cc1F 13.7 to 23 h

* * *

Assay protocol: SAD study plasma PK, single oral dose, healthy young subjects
Assay type: in vivo, human
Condition details: human, plasma, po, 60 mg, AUCinf, Median, single oral dose 60 mg, n=6
Recorded metric: AUC(0-inf) (ng·h/mL)
Entry rule: numbers only, all in ng·h/mL.

For Cn1c(-c2ccc(C(N)=O)cc2F)nnc1C(C)(C)Oc1c(F)cc(Cl)cc1F , write its AUC(0-inf). 8460

* * *

Assay protocol: SAD study plasma PK, single oral dose, healthy young subjects
Type: in vivo, human
Condition details: human, plasma, po, 3 mg, Cmax, Median, single oral dose 3 mg, n=6
Recorded metric: Cmax (ng/mL)
I only need the number, in ng/mL, no unit after it.

// fetch Cmax given entry Cn1c(-c2ccc(C(N)=O)cc2F)nnc1C(C)(C)Oc1c(F)cc(Cl)cc1F 1.6

* * *

Assay protocol: SAD study plasma PK, single oral dose, healthy young subjects
Format: in vivo, human
Condition details: human, plasma, po, 6 mg, Cmax, Min–max, single oral dose 6 mg, n=6
Recorded metric: Cmax

Note down Cmax recorded for Cn1c(-c2ccc(C(N)=O)cc2F)nnc1C(C)(C)Oc1c(F)cc(Cl)cc1F 10.8 to 43.7 ng/mL

* * *

Assay protocol: SAD study plasma PK, single oral dose, healthy young subjects
Format: in vivo, human
Condition details: human, plasma, po, 1 mg, Cmax, Min–max, single oral dose 1 mg, n=6
Recorded metric: Cmax

Identify measured Cmax associated with Cn1c(-c2ccc(C(N)=O)cc2F)nnc1C(C)(C)Oc1c(F)cc(Cl)cc1F [ASP3662] < 0.14 ng/mL
